Values from patent US20260125382A1

study.target: CDK2 (Homo sapiens, UniProt P24941)
Construct: endogenous in cells; host or cells: MDA-MB-231
experimental.details: CDK protein degradation activity (Western blotting), CDK2
Type: cell-based
condition.description: MDA-MB-231 cells, 0.1 μM, 16 hours, Western blot
readout.name: Enzyme degradation CDK2 (% remaining) @ 0.1 μM

# compound, recorded.result
measured = [
    ("O=C1CC[C@H](N2C(=O)c3ccc(NCC(=O)N4CCN(CC5CCN(c6ccc(Nc7ncnc8c7ncn8[C@H]7C[C@@H](NC(=O)c8c(Cl)cccc8Cl)C7)cc6)CC5)CC4)cc3C2=O)C(=O)N1", "10/10/10%"),
    ("Cc1cccc(C(=O)NC2CC(n3cnc4c(Nc5ccc(N6CCN(CC7CCN(C(=O)C8CCN(c9ccc%10c(c9)C(=O)N([C@H]9CCC(=O)NC9=O)C%10=O)CC8)CC7)CC6)cc5)ncnc43)C2)n1 (some centres unmarked)", "40/40/40%"),
    ("O=C1CC[C@@H](c2ccc(OCC(=O)N3CCC(CN4CCN(c5ccc(Nc6ncnc7c6ncn7[C@H]6C[C@@H](NC(=O)c7cccc(Cl)n7)C6)cc5)CC4)CC3)cc2)C(=O)N1", "20/20/20%"),
    ("Cc1cccc(C(=O)NC2CC(n3cnc4c(Nc5ccc(N6CCN(CC7CCN(c8ccc9nnn([C@H]%10CCC(=O)NC%10=O)c(=O)c9c8)CC7)CC6)cc5)ncnc43)C2)n1 (some centres unmarked)", "10/10/10%"),
    ("O=C1CC[C@H](N2C(=O)c3ccc(N4CCC(C(=O)N5CCC(CN6CCN(c7ccc(Nc8ncnc9c8ncn9C8CC(NC(=O)c9c(Cl)cccc9Cl)C8)cc7)CC6)CC5)CC4)cc3C2=O)C(=O)N1 (some centres unmarked)", "20/20/20%"),
]

* * *

Parameter: Enzyme degradation CDK9 (% remaining) @ 0.1 μM. Scope: all listed entries.
study.target: CDK9 (Homo sapiens, UniProt P50750)
Construct: endogenous in cells; host or cells: MDA-MB-231
Sequence (P50750 whole entry): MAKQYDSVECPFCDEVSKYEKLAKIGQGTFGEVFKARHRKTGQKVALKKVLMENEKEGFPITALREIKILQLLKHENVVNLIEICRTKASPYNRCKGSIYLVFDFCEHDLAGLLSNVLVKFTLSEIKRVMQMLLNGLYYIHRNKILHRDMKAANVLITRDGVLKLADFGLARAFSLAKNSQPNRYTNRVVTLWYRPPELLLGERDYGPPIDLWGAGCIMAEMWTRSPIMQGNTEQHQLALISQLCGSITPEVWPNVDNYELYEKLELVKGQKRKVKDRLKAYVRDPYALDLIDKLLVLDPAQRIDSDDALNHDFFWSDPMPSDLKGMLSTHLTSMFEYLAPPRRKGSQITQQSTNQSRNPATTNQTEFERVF
experimental.details: CDK protein degradation activity (Western blotting), CDK9
Format: cell-based
condition.description: MDA-MB-231 cells, 0.1 μM, 16 hours, Western blot
readout.name: Enzyme degradation CDK9 (% remaining) @ 0.1 μM (%)

# compound, recorded.result
measured = [
    ("Cc1cccc(C(=O)NC2CC(n3cnc4c(NCC5CCN(CC6CCN(c7ccc8c(c7)C(=O)N([C@@H]7CCC(=O)NC7=O)C8=O)CC6)CC5)ncnc43)C2)n1 (stereo partly shown)", 30),
    ("O=C1CC[C@H](n2nnc3ccc(N4CCN(CCCC5CCN(c6ccc(Nc7ncnc8c7ncn8C7CC(NC(=O)Cc8ccccc8)C7)cc6)CC5)CC4)cc3c2=O)C(=O)N1 (stereo partly shown)", 30),
    ("O=C1CC[C@H](n2nnc3ccc(N4CCC(CN5CCC(CCNc6ncnc7c6ncn7C6CC(NC(=O)c7c(Cl)cccc7Cl)C6)CC5)CC4)cc3c2=O)C(=O)N1 (stereo partly shown)", 20),
    ("O=C1CC[C@@H](c2ccc(OCC(=O)N3CCN(CCCN4CCN(c5ccc(Nc6ncnc7c6ncn7C6CC(NC(=O)Cc7ccccc7)C6)cc5)CC4)CC3)cc2)C(=O)N1 (stereo partly shown)", 20),
    ("O=C1CC[C@@H](c2cccc(OCC(=O)N3CCN(CCCN4CCN(c5ccc(Nc6ncnc7c6ncn7C6CC(NC(=O)Cc7ccccc7)C6)cc5)CC4)CC3)c2)C(=O)N1 (stereo partly shown)", 20),
]
